These data points were gathered from PubChem BioAssay (NCI).

Recorded measurements of growth, one per entry
System: 786-0 renal
assay protocol: NCI-60 one-dose screen, 48 h (100 = growth as untreated, 0 = no growth, -100 = all killed)
experimental setup: 10 µM unless noted
Compounds without any hit were thinned out: in the full panel of roughly 83,000, 20% have a hit.
Report only the number, with the unit % understood.

Guide cases for growth, answers given:
molecule	growth [%]
CC(C)N=C1CCCC1C(=S)SSC(=S)C1CCCC1=NC(C)C (stereo not drawn)	91.4
Fc1ccc(-c2nnc(N3CCOCC3)c3ccccc23)cc1	105
CCOC(=O)c1ccccc1SC(C[N+](=O)[O-])c1ccccc1 (stereo not drawn)	98.7

Quote growth with test system 786-0 renal for "COc1ccc2[nH]c(O)c(/C=c3/ccc4c(c3)N=C(c3ccc(F)cc3)N=4)c2c1"
-30.1

State, for 786-0 renal, measured growth of the molecule listed here: "COc1ccc(C2=Nn3c(nnc3-c3ccc(Cl)cc3N)SC2)cc1"
107

Please look at COc1cccc(OCC(O)CN2CCN(c3ccccc3)CC2)c1 (stereo not drawn) and tell me its recorded growth on 786-0 renal.
104

Output reported growth of the molecule "O=[N+]([O-])c1cccc([I+]c2ccccc2)c1" on 786-0 renal.
70.8

Provide the reported growth (system: 786-0 renal) for "O=C(c1ccccc1)N(CCCCl)C(=O)N(CCCCl)C(=O)c1ccccc1"
94.6

Give growth only, for "CCc1ccc(-c2ccc(NC3CCCCCC3)nn2)cc1S(N)(=O)=O" , using 786-0 renal data.
103

# lookup: 786-0 renal growth, key = "Cc1cc(Cl)c2ccc(N(C)C)cc2n1"
99

Jot down growth (786-0 renal) of "Nc1cccc(S(=O)(=O)c2cccc(N)c2)c1" .
108

Look up and report growth, with 786-0 renal as system, for CCCCC(CCc1ccccn1)C(=O)c1ccccc1 (stereo not drawn)
110

Fetch value of growth on 786-0 renal for NS(=O)(=O)c1ccc(N2N=C(c3cccs3)CC2c2ccccc2O)cc1 (stereo not drawn) .
10.8

Send back 786-0 renal growth of "CCCCCNCCCCCNc1cc(OC)cc2cccnc12" only.
83.1

Quote growth with test system 786-0 renal for "CCOC(=O)NNc1cccc(Cl)c1"
112

Please indicate recorded growth of "Cc1ccc(O)c(Cc2ccccc2)c1" measured with 786-0 renal.
107

Tell me growth of CC(=O)OC1Oc2ccccc2-c2oc3nc(=N)n(C)c-3cc21 (stereo not drawn) when tested on 786-0 renal.
103

Under 786-0 renal, report growth for "C=CCn1c(C)nc2cc(Nc3nc(N4CCOCC4)nc4nc[nH]c34)ccc21"
63.1

Using 786-0 renal as the test system, report measured growth of "COc1ccc2[nH]c(C(=O)OCc3ccc4c(Br)cc(Br)c(O)c4n3)cc2c1" .
-81.8

Report measured growth on 786-0 renal; entry: "C/C(CC(=O)NNc1ccc([N+](=O)[O-])cc1)=N\Nc1ccc([N+](=O)[O-])cc1"
55.3

* * *

Test system: UACC-257 melanoma
assay protocol: NCI-60 one-dose screen, 48 h (100 = growth as untreated, 0 = no growth, -100 = all killed)
experimental setup: 10 µM unless noted
This is part of a sample that, as a whole, favours compounds with a hit. Of some 83,000 tested, about 20% had one in any assay.
measurement type: growth (%)
Give the value, in units of %, as a plain number.

compound	quantity unit	growth
Cc1ccc(N=CNN=C(N)N)cc1	%	97.4

Determine from records and report growth for "COc1ccc(-c2nn(-c3cccc(Cl)c3)cc2/C=C2\C(=N)N(c3ccccc3)N=C2N)cc1"
58.4

Write down growth measured for item "Cc1cccc(C(=O)O)n1"
105
